assay: Intestinal absorption assay (Papp, apical to basolateral) across Caco-2-HT29-MTX-E12 coculture on Transwell; assay type: in vitro ADME, human; settings: human, I60 digesta, 10:1 dilution, applied 2 h; read-out: Apparent permeability (Papp)
Readout Label: Papp at 120 min (×10⁻⁶ cm/s)

P: O=C(O)C(=O)O
Q: O=C1O[C@H]([C@@H](O)CO)C(O)=C1O
(Q) For the pair P and Q , which member has the lower Papp at 120 min number? Refer to your chosen entry by its label in the reply.
(A) Q
(Q: 19 ×10⁻⁶ cm/s, P: 231 ×10⁻⁶ cm/s)

* * *

assay: Intestinal absorption assay (Papp, apical to basolateral) across Caco-2-HT29-MTX-E12 coculture on Transwell; type: in vitro ADME, human; conditions: human, I30 digesta, 10:1 dilution, applied 2 h; read-out: Apparent permeability (Papp)
Readout Label: Papp at 120 min (×10⁻⁶ cm/s)

(Q) Bench note: what Papp at 120 min did O=c1oc2c(O)c(O)cc3c(=O)oc4c(O)c(O)cc1c4c23 [EA, ellagic acid] show?
(A) 796

I: O=C(O)C(=O)O [OA, oxalic acid]
II: O=C1O[C@H]([C@@H](O)CO)C(O)=C1O [AA, ascorbic acid]
(Q) For the pair I and II , which member has the lower Papp at 120 min number? Refer to your chosen entry by its label in the reply.
(A) II
(II: 41 ×10⁻⁶ cm/s, I: 258 ×10⁻⁶ cm/s)
